assay: Half life period was reported; format: ADME
// label = Satisfied if half-life is not less than 30 min, otherwise Not satisfied

Check out these entries, answers already filled in.
Incoming: Given the entry O=C(O)CC[C@H](NC(=O)Nc1ccc(N(CCCl)CCCl)cc1)C(=O)O , answer whether its half-life meets or surpasses 30 min.
Outgoing: Not satisfied

Incoming: Given the entry O=C(O)CC[C@H](NC(=O)c1ccc(N(CCCl)CCCl)cc1)C(=O)O , answer whether its half-life meets or surpasses 30 min.
Outgoing: Satisfied

Incoming: Given the entry CS(=O)(=O)OCCN(CCCl)c1ccc(C(=O)N[C@@H](CCC(=O)O)C(=O)O)cc1 , answer whether its half-life meets or surpasses 30 min.
Outgoing: Satisfied

Incoming: Given the entry O=C(O)CC[C@H](NC(=O)Cc1ccc(N(CCCl)CCCl)cc1)C(=O)O , answer whether its half-life meets or surpasses 30 min.
Outgoing: Satisfied

Incoming: Given the entry O=C(O)CC[C@H](NC(=O)Oc1ccc(N(CCCl)CCCl)cc1)C(=O)O , answer whether its half-life meets or surpasses 30 min.
Outgoing: Satisfied

Shift focus to the following entry.
Incoming: Given the entry O=C(O)CC[C@H](NC(=O)Sc1ccc(N(CCCl)CCCl)cc1)C(=O)O , answer whether its half-life meets or surpasses 30 min.
Outgoing: Satisfied
